Data provenance: ChEMBL document CHEMBL1201862

Test system: LXFL 529
EXPERIMENT NOTES: NCI tumour cell line growth inhibition, 48 h
Active and inactive are the calls of the source. No stated cut-off is given here; in the data, active = GI50 up to about 1.1 µM and inactive = higher.
MEASUREMENT KIND: GI50

O=C1C(Br)=CC2(C=C1Br)CCNC1=C2C(=O)c2ccccc2C1=O
5.37 µM (inactive)

Measured GI50, `C/C(CC(=O)Nc1cc(C)ccc1C)=N/N=C(N)N` : > 100 µM (inactive)

// recorded GI50 for `COc1ccc2c(c1)c1ccc3c(c1n2C)C(=O)C=CC3=O` : 14.1 µM (inactive)

----------
Below, each of the molecules is paired with its reported GI50 value.
Tested on: K562
EXPERIMENT NOTES: NCI tumour cell line growth inhibition, 48 h
Active and inactive are the calls of the source. No stated cut-off is given here; in the data, active = GI50 up to about 1.1 µM and inactive = higher.

These solved cases illustrate the format of a correct answer.
CNC1c2ccccc2C(=O)c2cc3c(cc21)OCCOCCOCCOCCO3 (stereo unspecified)
45.1 µM (inactive)
O=C(/C=C/c1cccc(Br)c1)c1ccc(Cl)cc1
6.58 µM (inactive)
CCOC(=O)C(C(=O)OCC)=c1sc(=C(C(=O)OCC)C(=O)OCC)s1
> 100 µM (inactive)
COc1cccc(/N=N/C(=NNC(=O)c2ccc(C)cc2)c2ccc(N(C)C)cc2)c1
44 µM (inactive)
COc1cc(/C=C2\C(=O)N(c3cccc(Cl)c3)C(c3ccccc3)S2(=O)=O)cc(OC)c1OC (stereo unspecified)
22.3 µM (inactive)

GI50 in this record for `Oc1c2c(c(O)c3ccccc13)C1(N=N2)c2ccccc2Oc2ccccc21` : 9.91 µM (inactive)

The recorded GI50 for entry CC(=O)CC1(OC(=O)C2C(C=C(C)C)C2(C)C)C(=O)Nc2ccccc21 (stereo unspecified) equals 77.3 µM (inactive)

Just so you know, measured GI50 for `COc1cc(O)c(/C=N/N=C(\N)NO)c(OC)c1` came out at > 10 µM (inactive)

GI50 measured on C1=NN(Cc2ccccc2)C(N(Cc2ccccc2)Cc2ccccc2)N1 (stereo unspecified) = 8.91 µM (inactive)

Reported GI50 of NC(=S)N1N=C(c2ccccc2O)CC1c1ccccc1 (stereo unspecified) : 3.85 µM (inactive)

Reported GI50 for `Cc1ccc(Nc2nc3ccccc3nc2NS(=O)(=O)c2ccc(N)cc2)cc1` was 31.5 µM (inactive)
